test system: dengue virus type 2; experiment: Antiviral activity against DENV-2 New Guinea C infected in human Huh-7 cells preincubated for 1 hr followed by viral infection and measured after 48 hrs by Renilla luciferase reporter gene assay
Assignment: determine reported pEC50 for the given molecules.
Give bare numbers, as −log10 of the molar value.

The following molecules have reported results that may help.
molecule | pEC50
COc1cc(-c2cnc3c(N4C[C@@H](C)O[C@@H](C)C4)snc3c2)ccc1N | 6.02
COc1cc(-c2cnc3c(N4CCCC(CNC(=O)c5ccccc5)C4)snc3c2)ccc1N (centres undefined) | 5.41
COc1cc(-c2cnc3c(-c4cccc(NC(=O)C(C)C)c4)snc3c2)ccc1N | 5.42
COc1cc(-c2cnc3c(-c4cccc(NC(=O)N5CCCC5)c4)snc3c2)ccc1N | 5.22
C#Cc1cccc(Nc2ncnc3cc(OCCOC)c(OCCOC)cc23)c1 | 4.92
COc1cc(-c2cnc3c(-c4cccc(NC(=O)C5CCCC5)c4)snc3c2)ccc1N | 5.74
COc1cc(-c2cnc3c(N4CCCC(CNC(=O)C5CC5)C4)snc3c2)ccc1N (centres undefined) | 5.40
COc1cc(-c2cnc3c(N4CCC[C@H](CNC(=O)C5CC5)C4)snc3c2)ccc1N | 5.12

Qu. Quick check: pEC50 of COc1cc(-c2cnc3c(N4CCCC(CNC(=O)C5CCCC5)C4)snc3c2)ccc1N (centres undefined) ?
Ans. 5.59
